Target System: Dihydrofolate reductase (Mycobacterium avium)
Test Protocol: Inhibition of Mycobacterium avium DHFR at IC50 by continuous spectrophotometric assay
For each entry below, report its inhibition value.
Give bare numbers, in %.

Completed entries (count: 2):
substance_smiles=COc1cc(COc2cc(N)nc(N)n2)cc(OC)c1OC recorded_number=12
substance_smiles=Cc1ccc(COc2ccc(C(=O)/C=C/c3cnc(N)nc3N)cc2)cc1 recorded_number=4

Below: the item to evaluate.
INPUT: I'm curious: which inhibition was measured for Nc1ncc(COS(=O)(=O)c2ccc3ccccc3c2)c(N)n1 tested on Dihydrofolate reductase (Mycobacterium avium)?
OUTPUT: 15

----------
Target System: Dihydrofolate reductase (Mycobacterium avium) (UniProt O30463)
Sequence (O30463 as listed by the source): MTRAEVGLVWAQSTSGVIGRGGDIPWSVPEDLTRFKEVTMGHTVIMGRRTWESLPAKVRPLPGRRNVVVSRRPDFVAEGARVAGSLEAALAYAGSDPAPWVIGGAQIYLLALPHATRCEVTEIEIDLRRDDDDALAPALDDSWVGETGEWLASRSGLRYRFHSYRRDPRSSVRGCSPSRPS
Test Protocol: Inhibition of Mycobacterium avium DHFR at IC50 by continuous spectrophotometric assay
Tick Y if inhibition is 5% or greater. Tick N if inhibition is less than 5%.

INPUT: Record COc1ccc(NCc2cnc(N)nc2N)cc1 ; criterion: inhibition no lower than 5%. Met?
OUTPUT: N

INPUT: Reported inhibition reaches at least 5% for Nc1ncc(CNc2cccc3ccccc23)c(N)n1 ?
OUTPUT: Y

INPUT: Dear colleague, could you confirm whether COc1ccc(C(=O)/C=C/c2cnc(N)nc2N)cc1 has inhibition at or above 5%?
OUTPUT: Y

INPUT: State whether the measured inhibition reaches 5%, counting equality as reaching it, for Nc1nc(N)nc(CN2c3ccccc3Sc3ccccc32)n1
OUTPUT: N

INPUT: Reported inhibition reaches at least 5% for Nc1nc(N)nc(CN2c3ccccc3CCc3ccccc32)n1 ?
OUTPUT: Y

----------
Would you mind telling me the reported Activity of each entry?
Target System: Bifunctional dihydrofolate reductase-thymidylate synthase (Toxoplasma gondii)
Test Protocol: Inhibition of Toxoplasma gondii DHFR by continuous spectrophotometric assay
Reply with the number and its unit after it.

substance_smiles=Nc1nc(N)nc(CN2c3ccccc3Sc3ccc(Cl)cc32)n1 result="397 µM"
substance_smiles=Nc1ncc(CN2c3ccccc3C=Cc3ccccc32)c(N)n1 result="8.07 µM"
substance_smiles=Nc1cc(OCCN2c3ccccc3C=Cc3ccccc32)nc(N)n1 result="3.35 µM"

Now look at this entry.
INPUT: Value wanted: Activity (Bifunctional dihydrofolate reductase-thymidylate synthase (Toxoplasma gondii)) of entry Nc1ncc(CNc2cccc3ccccc23)c(N)n1
OUTPUT: 22.1 µM

----------
Target System: Bifunctional dihydrofolate reductase-thymidylate synthase (Toxoplasma gondii) (UniProt Q07422)
Sequence (whole entry): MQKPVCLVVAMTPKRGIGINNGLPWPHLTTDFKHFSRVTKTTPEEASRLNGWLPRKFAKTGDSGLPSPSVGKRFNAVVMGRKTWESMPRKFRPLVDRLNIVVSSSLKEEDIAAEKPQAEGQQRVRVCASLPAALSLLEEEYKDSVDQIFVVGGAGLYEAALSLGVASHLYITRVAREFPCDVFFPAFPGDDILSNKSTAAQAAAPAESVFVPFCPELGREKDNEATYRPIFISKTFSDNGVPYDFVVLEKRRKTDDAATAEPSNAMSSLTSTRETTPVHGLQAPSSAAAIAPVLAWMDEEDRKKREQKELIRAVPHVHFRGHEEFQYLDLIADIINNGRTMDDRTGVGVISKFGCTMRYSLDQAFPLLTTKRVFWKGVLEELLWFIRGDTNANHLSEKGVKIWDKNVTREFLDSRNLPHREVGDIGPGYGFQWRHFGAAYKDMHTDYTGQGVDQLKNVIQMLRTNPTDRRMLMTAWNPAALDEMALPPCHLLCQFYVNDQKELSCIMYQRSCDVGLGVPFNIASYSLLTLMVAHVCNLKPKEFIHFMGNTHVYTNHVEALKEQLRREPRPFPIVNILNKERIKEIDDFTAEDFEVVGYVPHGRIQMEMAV
Test Protocol: Inhibition of Toxoplasma gondii DHFR at IC50 by continuous spectrophotometric assay
Set-up: concentration or dose not given beside the values
Assign inhibition to each entry below.
One number for each entry, in %.

substance_smiles=Nc1ncc(COS(=O)(=O)c2ccc3ccccc3c2)c(N)n1 recorded_number=13
substance_smiles=COc1ccc(NCc2cnc(N)nc2N)cc1 recorded_number=7
substance_smiles=COc1cc(COc2cc(N)nc(N)n2)cc(OC)c1OC recorded_number=10
substance_smiles=COc1ccc(C(=O)/C=C/c2cnc(N)nc2N)cc1 recorded_number=15

Would you be so kind as to report inhibition for each listed record?
1. Nc1nc(N)nc(CN2c3ccccc3Sc3ccccc32)n1
2. Nc1nc(N)nc(CN2c3ccccc3CCc3ccccc32)n1
3. Cc1ccc(COc2ccc(C(=O)/C=C/c3cnc(N)nc3N)cc2)cc1

OUTPUT:
15
10
10

----------
Target System: Dihydrofolate reductase (Rattus norvegicus) (UniProt Q920D2)
Sequence (Q920D2 whole entry): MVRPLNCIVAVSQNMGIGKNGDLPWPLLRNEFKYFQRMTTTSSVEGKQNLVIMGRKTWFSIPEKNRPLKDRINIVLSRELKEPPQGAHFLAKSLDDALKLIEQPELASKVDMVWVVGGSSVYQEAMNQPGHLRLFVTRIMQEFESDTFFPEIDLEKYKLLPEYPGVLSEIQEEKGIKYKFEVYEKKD
Test Protocol: Inhibition of rat liver DHFR at IC50 by continuous spectrophotometric assay
Measurement Kind: inhibition (%)
Give bare numbers, in %.

Example results:
substance_smiles=Nc1nc(N)nc(CN2c3ccccc3CCc3ccccc32)n1 target_system="Dihydrofolate reductase (Rattus norvegicus) (UniProt Q920D2)" recorded_number=0
substance_smiles=Nc1ncc(CN2c3ccccc3C=Cc3ccccc32)c(N)n1 target_system="Dihydrofolate reductase (Rattus norvegicus) (UniProt Q920D2)" recorded_number=15
substance_smiles=Cc1ccc(COc2ccc(C(=O)/C=C/c3cnc(N)nc3N)cc2)cc1 target_system="Dihydrofolate reductase (Rattus norvegicus) (UniProt Q920D2)" recorded_number=0
substance_smiles=COc1cc(COc2cc(N)nc(N)n2)cc(OC)c1OC target_system="Dihydrofolate reductase (Rattus norvegicus) (UniProt Q920D2)" recorded_number=12
substance_smiles=Nc1nc(N)nc(CN2c3ccccc3Sc3ccc(Cl)cc32)n1 target_system="Dihydrofolate reductase (Rattus norvegicus) (UniProt Q920D2)" recorded_number=8

INPUT: May I ask what inhibition has been recorded for Nc1ncc(COS(=O)(=O)c2ccc3ccccc3c2)c(N)n1 ?
OUTPUT: 0

----------
Assignment: determine reported Ratio IC50 for the given compounds.
Test Protocol: Selectivity ratio of IC50 for rat liver DHFR to IC50 for Mycobacterium avium DHFR
Numbers only.

Some entries whose results are on file:
substance_smiles=CN(Cc1cnc(N)nc1N)c1cccc2ccccc12 recorded_number=209
substance_smiles=Nc1nc(N)c2nc(CN3c4ccccc4C=Cc4ccccc43)cnc2n1 recorded_number=367
substance_smiles=Nc1ncc(CSc2nc3ccccc3o2)c(N)n1 recorded_number=22.5
substance_smiles=Nc1nc(N)c2cc(COC(=O)c3c4ccccc4cc4ccccc34)ccc2n1 recorded_number=0.21

Could you now consider this next compound?
INPUT: I am curious: what Ratio IC50 value has been reported for Nc1ncc(CN2c3ccccc3CCc3ccccc32)c(N)n1 ?
OUTPUT: 14.4

----------
Test Protocol: Selectivity ratio of IC50 for rat liver DHFR to IC50 for Pneumocystis carinii DHFR
Measurement Kind: IC50 selectivity ratio (rat liver / P. carinii DHFR)
One number for each entry.

Below, each entry is followed by its recorded IC50 selectivity ratio (rat liver / P. carinii DHFR) result.
substance_smiles=CN(Cc1cnc(N)nc1N)c1cccc2ccccc12 recorded_number=4.79
substance_smiles=Nc1ncc(CSc2nc3ccccc3o2)c(N)n1 recorded_number=14.5
substance_smiles=Nc1nc(N)c2cc(COC(=O)c3c4ccccc4cc4ccccc34)ccc2n1 recorded_number=0.43
substance_smiles=Nc1ncc(CNc2cccc3ccccc23)c(N)n1 recorded_number=0.85

Consider now this further compound.
INPUT: Given the compound Nc1ncc(CN2c3ccccc3CCc3ccccc32)c(N)n1 , what is its reported IC50 selectivity ratio (rat liver / P. carinii DHFR)?
OUTPUT: 1.89

----------
Target System: Bifunctional dihydrofolate reductase-thymidylate synthase (Toxoplasma gondii)
Test Protocol: Inhibition of Toxoplasma gondii DHFR by continuous spectrophotometric assay
Measurement Kind: Activity (µM)
Give bare numbers, in µM.

Example entries begin here.
substance_smiles=Nc1ncc(CSc2nc3ccccc3o2)c(N)n1 target_system="Bifunctional dihydrofolate reductase-thymidylate synthase (Toxoplasma gondii)" recorded_number=160
substance_smiles=Nc1ncc(CN2c3ccccc3CCc3ccccc32)c(N)n1 target_system="Bifunctional dihydrofolate reductase-thymidylate synthase (Toxoplasma gondii)" recorded_number=0.14
substance_smiles=Nc1nc(N)c2cc(COC(=O)c3c4ccccc4cc4ccccc34)ccc2n1 target_system="Bifunctional dihydrofolate reductase-thymidylate synthase (Toxoplasma gondii)" recorded_number=0.67
substance_smiles=Nc1nc(N)nc(CN2c3ccccc3Sc3ccccc32)n1 target_system="Bifunctional dihydrofolate reductase-thymidylate synthase (Toxoplasma gondii)" recorded_number=143

Please give Activity, item by item, for the list that follows.
1. Nc1nc(N)c2nc(CN3c4ccccc4C=Cc4ccccc43)cnc2n1
2. CN(Cc1cnc(N)nc1N)c1cccc2ccccc12
3. COc1ccc(C(=O)/C=C/c2cnc(N)nc2N)cc1

OUTPUT:
[0.043, 3.49, 151]

Consider the following items and state reported Activity for each.
1. Cc1ccc(COc2ccc(C(=O)/C=C/c3cnc(N)nc3N)cc2)cc1
2. Nc1ncc(COS(=O)(=O)c2ccc3ccccc3c2)c(N)n1
3. COc1cc(COc2cc(N)nc(N)n2)cc(OC)c1OC
4. COc1ccc(NCc2cnc(N)nc2N)cc1
5. Nc1nc(N)nc(CN2c3ccccc3CCc3ccccc32)n1

OUTPUT:
1: 117; 2: 124; 3: 145; 4: 44; 5: 140
